- Test details: gradient 5% acetonitrile 3 min, to 50% in 2 min, to 85% in 15 min, held 3 min, 100 µL/min
- Experimental parameters: column: Zorbax Extend-C18 2.1 x 50 mm; eluents: water / acetonitrile, 0.1% formic acid
Please use Satisfied for RP-LC retention time under 700 s and Not satisfied for everything else, ties included.

Req: Lab note: confirm whether the reported RP-LC retention time for this compound is below 700 s, equality not counting. compound: Cc1nc2c3ccccc3nc(NNC(=O)CCC(=O)N3CCN(c4ccccn4)CC3)n2n1
Resp: Satisfied

Req: Say whether its RP-LC retention time is strictly beneath 700 s. Entry: COC(=O)c1cccc(NC(=O)C2CCCN(c3nnc4ccc(Cl)cn34)C2)c1 (centres undefined)
Resp: Not satisfied

Req: Dear colleague, could you confirm whether RP-LC retention time of Cc1ccc(C(=O)N2CCN(c3nc4ccccc4n(CC(C)C)c3=O)CC2)s1 falls below 700 s? Thanks.
Resp: Not satisfied

Req: Below 700 s on RP-LC retention time? Entry COc1cccc(-c2cc(C(=O)N3CCCC3c3c(C)noc3C)on2)c1 (centres undefined)
Resp: Not satisfied

Req: Item CCn1ncc(Cl)c1C(=O)N1CCCC1c1cc(C)no1 (centres undefined) : RP-LC retention time beneath 700 s, strictly?
Resp: Not satisfied

Req: Regarding Cc1ccc(S(=O)(=O)c2nc(SCC(=O)N3CCCCC3)sc2Cl)cc1 , kindly confirm whether its RP-LC retention time is beneath 700 s.
Resp: Not satisfied

Req: Regarding CCOC(=O)CC1(NC(=O)N2CCCn3nc(-c4ccncc4)cc3C2)CCCCC1 , kindly confirm whether its RP-LC retention time is beneath 700 s.
Resp: Satisfied

----------
- Test details: gradient 5% acetonitrile 3 min, to 50% in 2 min, to 85% in 15 min, held 3 min, 100 µL/min
- Experimental parameters: column: Zorbax Extend-C18 2.1 x 50 mm; eluents: water / acetonitrile, 0.1% formic acid
Measured quantity: RP-LC retention time (s)
Write the answer as a number in s, unit excluded.

Req: Entry COc1ccc(CNC(=O)c2cnc(OC)nc2)c(OC)c1 has what RP-LC retention time?
Resp: 715

Req: Can you share its RP-LC retention time? I mean this compound: CCC(C)NC(=O)Cn1nc2c3cc(-c4ccc(F)cc4)nn3ccn2c1=O (centres undefined)
Resp: 764

Req: Looking for the measured RP-LC retention time of COC(=O)c1ccc(CN2CCC(c3nnc(C(F)(F)F)o3)CC2)o1 , can you help?
Resp: 560

Req: Consider the compound Cc1ccc(C)c(C(=O)CC2(O)C(=O)N(C)c3ccccc32)c1 (centres undefined) and give its measured RP-LC retention time.
Resp: 818

Req: Requested read-out: RP-LC retention time. Entry: CCN1CCN(C(=O)C2CCN(S(=O)(=O)c3c(C)nn(-c4ccc(Cl)cc4)c3C)CC2)CC1
Resp: 670

Req: Fill in the blank: the reported RP-LC retention time of Cc1ccc(Sc2nccnc2N2CCCC(C(=O)NCc3ccc(C)o3)C2)cc1 (centres undefined) is ____.
Resp: 1080

Req: Sample COc1cc(OC)cc(-c2nnc(Cc3nc(-c4ccc(Cl)cc4)no3)o2)c1 — what was its RP-LC retention time?
Resp: 1110

Req: Which RP-LC retention time is reported for this compound? O=S(=O)(c1ccc(Cl)c(-c2nnc(-c3ccccc3)o2)c1)N1CCSCC1
Resp: 1070

Req: Field request: RP-LC retention time | item: Clc1ccc2nc3ccccc3cc2c1
Resp: 842

Req: // lookup RP-LC retention time for COc1ccc(C2CCN(C(=O)c3ccoc3)CC2)cc1
Resp: 853

Req: Item under review: Cc1nc(-c2cccc(NC(=O)c3coc(NC(=O)c4ccco4)n3)c2)cs1 . Reported RP-LC retention time?
Resp: 688

Req: Entry COC(=O)c1cnc2nc(C)ccc2c1Nc1cccc(Cl)c1 : reported RP-LC retention time = ?
Resp: 705

Req: Given the compound O=C(Cn1ccc2ccc(N3CCOCC3)nc21)NCc1ccc(F)cc1F , what is its reported RP-LC retention time?
Resp: 870

Req: Recorded RP-LC retention time for Cc1ccn2cc(C(=O)NCc3ccc(N4CCOCC4)cc3)nc2c1 , please?
Resp: 591

Req: RP-LC retention time for O=C(NCCc1csc(C2CCN(C(=O)C3CCCO3)CC2)n1)C1CCC1 (centres undefined) ?
Resp: 626

Req: Which RP-LC retention time value belongs to CCOc1ccc(-n2c(CN3CCN(C(=O)NC4CCCC4)CC3)nc3cccnc32)cc1 ?
Resp: 636

Req: Need RP-LC retention time of Cc1ccc(-c2nnc(-c3cccc(S(=O)(=O)N4CCC(C(=O)O)CC4)c3)o2)cc1 , thanks.
Resp: 860

Req: Sample Cc1cc(C)cc(NC(=O)CN2C(=O)CC(C)S(=O)(=O)c3ccccc32)c1 (centres undefined) — what was its RP-LC retention time?
Resp: 846

Req: Consider the compound Cn1c(=O)c(=O)n(C)c2cc(Oc3ccccc3)c(NC(=O)C3CCCCC3)cc21 and give its measured RP-LC retention time.
Resp: 870

Req: Given the entry CCN(CC)CCNC(=O)C1CCCN(c2ccc(Sc3ccc(Br)cc3)nn2)C1 (centres undefined) , report its measured RP-LC retention time.
Resp: 664

Req: Recorded RP-LC retention time for CSc1cccc(NC(=O)N2CCN(Cc3nc4cccnc4n3-c3ccc(F)cc3)CC2)c1 , please?
Resp: 711

Req: Which value of RP-LC retention time has been reported for CC(C)c1noc(C2(NC(=O)C3CCCC3)CCCCC2)n1 in the records?
Resp: 968

Req: Value lookup for RP-LC retention time; key = O=C(Nc1ccc(OC(F)(F)F)cc1)C1CCCN(c2ccc(=O)n(-c3cccc(Cl)c3)n2)C1 (centres undefined)
Resp: 1090

Req: Reported RP-LC retention time for COc1ccc(N2CC(c3noc(-c4cc(OC)c(OC)c(OC)c4)n3)CC2=O)cc1 (centres undefined) : what is it?
Resp: 787

Req: For CCc1cccc(NC(=O)N2CCC(n3cnnc3C3CC3)C2)c1 (centres undefined) , what is its reported RP-LC retention time?
Resp: 667

Req: What value of RP-LC retention time has been reported for the following compound? O=C(CN1CCN(Cc2ccc(F)cc2)C1=O)NCC1CCCCC1
Resp: 854

Req: Given the compound CC(C)NC(=O)N1CCCN(S(=O)(=O)C(C)C)CC1 , what is its reported RP-LC retention time?
Resp: 649

Req: Return reported RP-LC retention time; argument: CC(=O)N(Cc1nn(C)c2c1CN(S(=O)(=O)c1cc(C)ccc1C)CC2)c1ccccc1
Resp: 856

Req: I have this compound here, Cc1ccc(C)c(N2CCN(C(=O)Cn3cccc3-c3nnc(C4CC4)o3)CC2)c1 , and I need its recorded RP-LC retention time.
Resp: 1020

Req: I have this compound here, COc1cc(C(=O)N2CCC3(CC2)NC(=O)c2ccccc2N3C)cc(OC)c1OC , and I need its recorded RP-LC retention time.
Resp: 669

Req: What does the record list as RP-LC retention time for Cc1cccc(CNC(=O)CCC2CCN(c3cc(NC4CC4)ncn3)CC2)c1 ?
Resp: 672

Req: What does the data say about its RP-LC retention time? Entry: CC(=O)N(Cc1nn(C)c2c1CN(Cc1ccc(OCC(N)=O)cc1)CC2)c1ccccc1
Resp: 585

Req: Give its RP-LC retention time value. Item: COc1ccc2c(c1)C=C(C(=O)Nc1ccc(OC)cc1OC)C=CO2
Resp: 699

Req: Any idea what its RP-LC retention time is? The compound is O=C(NCC#CCN1CCc2ccccc2C1)Nc1cccs1
Resp: 557

Req: State the recorded RP-LC retention time for this entry: Cc1cccc(C(=O)Nc2nc(-c3ccc4c(c3)NC(=O)C(C)O4)cs2)c1 (centres undefined)
Resp: 962

Req: Form field: reported RP-LC retention time of CCc1nc(-c2csc(S(=O)(=O)N3CCCC(C(=O)Nc4cccc(C)c4)C3)c2)no1 (centres undefined)
Resp: 983

Req: Consider the compound shown here: O=C(CN1C(=O)CC(c2cccs2)=Nc2ccccc21)Nc1ccccc1Cl What is its recorded RP-LC retention time?
Resp: 980

Req: What does the data say about its RP-LC retention time? Entry: COC(=O)c1cnc(N2CCN(c3ccccc3)CC2)c2ccccc12
Resp: 1160

Req: Name the recorded RP-LC retention time for Cc1nc2cc(C(=O)N3CCOCC3)ccc2n(C)c1=O .
Resp: 596

----------
- Test details: gradient 5% acetonitrile 3 min, to 50% in 2 min, to 85% in 15 min, held 3 min, 100 µL/min
- Experimental parameters: column: Zorbax Extend-C18 2.1 x 50 mm; eluents: water / acetonitrile, 0.1% formic acid
Binning of RP-LC retention time into classes: band 1 (below 700 s), band 2 (700 s to below 1000 s), band 3 (1000 s or more)

Req: GET /class?item= O=C(COc1cccc(Cl)c1)N1CCCN(C2CCN(CC3CC3)C2=O)CC1 (centres undefined)
Resp: band 1

Req: Which category does the recorded RP-LC retention time put Cc1noc(-c2ccc(S(=O)(=O)N3CCN(c4ccccn4)CC3)s2)c1C in?
Resp: band 2

Req: Assign a category based on measured RP-LC retention time for Cn1ncc(NC(=O)Cc2cccc(F)c2)c(N2CCOCC2)c1=O and give only the class name.
Resp: band 2

Req: State the band of O=S(=O)(c1ccc(-c2noc(-c3cccc(Cl)c3)n2)cc1)N1CCOCC1
Resp: band 3

Req: // bin(item) where item = COc1ccc(-c2nc(Cn3ccn4nc(-c5ccccc5OC)cc4c3=O)c(C)o2)cc1
Resp: band 3

Req: Which class holds O=C(CSc1ccc(-n2cnc(-c3ccccc3)c2)nn1)Nc1ccc(F)cc1F ?
Resp: band 2

Req: Pick a category. Item: CCOCCCNC(=O)Cn1ncc2c(N3CCN(c4ccccn4)CC3)ncnc21
Resp: band 1

Req: Tag the class for C[C@]12C=CC(=O)C=C1[C@@H](F)C[C@H]1[C@@H]3CC[C@](O)(C(=O)CO)[C@@]3(C)C[C@H](O)[C@@]12F
Resp: band 1
